target desc: Gal(b1-4)GlcNAc(b1-3)[GlcNAc(b1-6)]Gal(b1-4)GlcNAc
assay info: glycan array binding signal (z-score within array); higher = stronger binding
condition notes: glycan notation: IUPAC condensed, linker removed
This excerpt belongs to a sample that is enriched for the strongest signals.
Measured glycan array binding signal (z-score) by item

[[record]]
binder = "Clrb (Mus musculus) (protein) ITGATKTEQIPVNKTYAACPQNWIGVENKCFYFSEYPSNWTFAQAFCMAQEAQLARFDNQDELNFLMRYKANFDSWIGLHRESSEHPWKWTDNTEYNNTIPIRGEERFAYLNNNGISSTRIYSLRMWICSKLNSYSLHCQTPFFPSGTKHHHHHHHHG"
measured = 5.13


Sample MD-2 (Homo sapiens) (protein) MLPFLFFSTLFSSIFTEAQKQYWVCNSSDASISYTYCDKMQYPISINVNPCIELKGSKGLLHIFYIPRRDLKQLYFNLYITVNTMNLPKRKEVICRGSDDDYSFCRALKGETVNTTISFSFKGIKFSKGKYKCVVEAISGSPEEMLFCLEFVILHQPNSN — what was its glycan array binding signal (z-score)? -0.262

Also MRCL (Homo sapiens), NP_872425.1 (protein) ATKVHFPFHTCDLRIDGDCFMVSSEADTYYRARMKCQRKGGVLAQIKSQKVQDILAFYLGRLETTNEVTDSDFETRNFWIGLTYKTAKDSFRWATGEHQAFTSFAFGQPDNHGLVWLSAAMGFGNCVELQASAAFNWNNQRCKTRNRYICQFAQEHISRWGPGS , if possible. 4.12
